Assay: yeast display, Sf9 membrane polyspecificity reagent, FACS + sequencing; frameworks hold sequencing errors
recorded.metric: polyreactivity (PSR sort gate)

• QVQLVESGGGLVQAGGSLRLSCAASGSIFPRNAMGWYRQAPGKERELVARINSGGTTKYADSVKGRFTISRDNAKNTVYLQMNSLKPEDTAVYYCNADTYILDPLRKSYGYDYWGQGTQVTVSS = low polyreactivity
• QVQLVESGGGLVQAGGSLRLSCAASGNILPVYAMGWYRQAPGKEREFVAAITSRGGSTYYADSVKGRFTISRDNAKITVYLQMNSLKPDDTAVYYCAAKYLRAYGYWGQGTQVTVSS = high polyreactivity
• QVQLVESGGGLVQAGGRLRLSCAASGRIFTYYVMGWYRQAPGKERELVASISGSGGRTYYADSVKGRFTISRDNAKNTVYLQMNSLKPEDTAVYYCATRLYKRTRTITYGYWGQGTQVTVSS = high polyreactivity
• QVQLVESGGGLVQAGGSLRLSCADSGSTIYGYAMGWYRQAPGKERELVAAISISGGGTYYADSVKGRFTISRDNAKNSVYLQMNSLKPEDTAVYYCARRYFWGQGTQVTVSS = low polyreactivity
• QVQLVESGGGLVLAGGSLRLSCAASGSILEGYVMGWYRQAPGKERELVAAISRGGGSTYYADSVKGRFTISRDNAKNTVYLQMNSLKPEDTAVYYCAARFAASYYWGQGTQVTVSS = high polyreactivity
